Measured TGI values are reported for all entries that follow.
System: SK-MEL-5 melanoma
ASSAY_SUMMARY: NCI tumour cell line growth inhibition, 48 h

COMPOUND	TGI
O=P1(c2ccccc2)Nc2ccccc2SSc2ccccc2N1	31.6 µM
CCCCC/C=C1\CCC(CN(C)C)C1=O (stereo not drawn)	34.3 µM
COc1ccc(/C(Cl)=C(\C=O)c2ccc(OC)cc2)cc1	> 100 µM
Oc1cn(-c2ccc(Cl)cc2)nc1-c1n[nH]c(=S)n1-c1ccccc1	15.4 µM
O=c1oc2c/c(=C\c3ccc([N+](=O)[O-])cc3)c(=O)c3cccc1c3-2	> 100 µM
NCCc1cc(O)c(O)cc1O	38.6 µM
Cc1ccc2c(C3C(C#N)=C(N)Oc4cc5ccccc5cc43)cc(=O)oc2c1 (stereo not drawn)	19.9 µM
O=C1c2cc3c(cc2-c2c1c1cc(Cl)c(Cl)cc1c(=O)n2C[C@H](O)CO)OCO3	0.0134 µM
Cc1c2cccc-2c(OCCO)cc2c3ccccc3n(C)c12	5.77 µM
COc1cccc(C2c3cc4c(cc3OC(C)(N3CCCC3)C2C)OCO4)c1 (stereo not drawn)	14.5 µM
C[C@@]12CCC[C@@](C)(C(=O)O)C1CC[C@]13CC(=O)[C@](CO)(C1)[C@@H](O)CC32 (stereo partly drawn)	> 100 µM
COc1cccc2nc3c(C(=O)NCCN(C)C)cccc3cc12	3.09 µM
CCOC(=O)c1c2c(n(Cc3ccccc3)c1C)C(=O)C(=O)c1ccccc1-2	0.742 µM
C=CCC1(CN(C)C)CC/C(=C\c2ccc(Cl)cc2)C1=O (stereo not drawn)	> 79.1 µM
CN(CCN(C)C(=O)CCn1cc(F)c(=O)[nH]c1=O)C(=O)CCn1cc(F)c(=O)[nH]c1=O	> 100 µM
Cc1nc2ccc(F)cc2c2c1CCN2c1ccc(Cl)cc1	12.3 µM
C=C1CC/C=C(\C)CCC[C@H](C)[C@@H](O)[C@@H]2OC(=O)C(=C)[C@@H]2C[C@H]1O	22.6 µM
COCOC1C=CCCCC2=CC(C)=C(CC1)O2 (stereo not drawn)	> 100 µM
COc1ccccc1Nc1ncc(-c2ccccc2)o1	> 25 µM
CC(C)=CC1CC(=[N+]=[N-])C(=O)C1(C)C (stereo not drawn)	> 100 µM
O=C(N(O)c1ccccc1Cl)C(O)(c1ccccc1)c1ccccc1	> 100 µM
CC(=O)N(C)CCc1c[nH]c2ccccc12	> 100 µM
COC(=O)[C@@]1(C)/C(=N/NS(=O)(=O)c2ccc(C)cc2)CCC[C@@H]1C	> 100 µM

###

Listing of entries alongside the reported TGI.
Test system: T-47D breast
ASSAY_SUMMARY: NCI tumour cell line growth inhibition, 48 h
Where a SMILES comes first, the peptide text is derived from it. The star is where a group is joined. Cbz = O=C(OCc1ccccc1)*
MEASURE_NAME: TGI

COMPOUND	TEST_RESULT
COC(=O)C1=CN(CC2=CC(=O)C(C)=CC2=O)C=C(C(=O)OC)C1c1cccc(OC)c1	> 100 µM
O=C1NC(N/N=C\C(O)C(O)C(O)C(O)CO)=N/C1=C/c1ccc(Cl)cc1 (centres undefined)	> 100 µM
NCCc1cc(O)c(O)cc1O	73.2 µM
CS(=O)(=O)Nc1cc(-c2ccc3ncnc(Nc4c(Cl)ccc5c4OCO5)c3c2)cnc1Cl	0.606 µM
CCOC(=O)[C@H](C)OC(=O)[C@@](C)(NC(=O)c1ccccc1C(=O)OC)[C@@H]1NC=C(C(=O)OC)CS1	> 100 µM
CCOC(=O)c1c2c(n(Cc3ccccc3)c1C)C(=O)C(=O)c1ccccc1-2	2.19 µM
CC(=O)OCC1OC(n2c(C)cc(C)c(C#N)c2=S)C(OC(C)=O)C(OC(C)=O)C1OC(C)=O (centres undefined)	> 100 µM
CC(NC(=O)C(NC(=O)OCc1ccccc1)C(C)C)C(=O)NCC(=O)O (stereo not drawn) (Cbz-Val-Ala-Gly-OH; configuration not given here)	> 100 µM
COC(=O)c1ccc2c(c1)/C(=C\c1cc(Br)c(O)c(Br)c1)C(=O)N2	> 25 µM
CN(C)CCCn1cnc2cc(Cl)c(Cl)cc21	> 100 µM
COc1ccc(C2=C3SC=c4ccccc4=C3ON=C2c2ccccc2)cc1	> 100 µM
CC(=O)NC1=N/C(=C\c2ccc(Cl)cc2)C(=O)N1/C=C1\C(=O)Oc2ccccc2C1=O	> 100 µM
O=C(/C=C/C=C/c1ccccc1)c1ccccc1	48.2 µM
COC12C(COC(N)=O)C3=C(C(=O)C(C)=C(N)C3=O)N1CC1C2N1C (centres undefined)	182 µM
CCOC(=O)/C=C(\C(=O)OCC)n1ccc(=O)n(Cc2cn(CCCCOC(C)=O)nn2)c1=O	> 41 µM
COc1cc(/C=C\c2cc(OC)c(OC)c(OC)c2)cc(N/C=C\C(=O)c2cc(OC)c(OC)c(OC)c2)c1OC	6.83 µM
C=COC(=O)N[C@H]1CCc2cc(OC)c(OC)c(OC)c2-c2ccc(SC)c(=O)cc21	> 100 µM
O=C1c2ccccc2C(=O)c2c1nc1ccccc1c2-c1cncc(-c2c3c(nc4ccccc24)C(=O)c2ccccc2C3=O)c1	57.6 µM
Cc1ncc([N+](=O)[O-])n1CCNCCCCn1ccnc1[N+](=O)[O-]	> 100 µM

###

Each entry below carries its recorded TGI.
System: SF-268 CNS
ASSAY_SUMMARY: NCI tumour cell line growth inhibition, 48 h
MEASURE_NAME: TGI

COMPOUND	TARGET_OR_TEST_SYSTEM	MEASURE_NAME	TEST_RESULT
Cc1ncc([N+](=O)[O-])n1CCNCCCCn1ccnc1[N+](=O)[O-]	SF-268 CNS	TGI	> 100 µM
CCOC(=O)c1ccc(N=Nc2cc(C(=O)OCC)ccc2O)cc1	SF-268 CNS	TGI	> 100 µM
O=C(Nc1ccc([N+](=O)[O-])cc1[N+](=O)[O-])C(=O)C(C(=O)c1ccc2ccccc2c1)C1OC(=O)c2ccccc21 (stereo not given)	SF-268 CNS	TGI	43.1 µM
COc1ccc(/C=C2\c3cc(OC)c(OC)cc3CCN2C(=O)c2ccccc2)cc1OC	SF-268 CNS	TGI	> 100 µM
COc1ccc(C2=C(c3ccc(OC)cc3)C(=O)N3CCCC3C2)cc1 (stereo not given)	SF-268 CNS	TGI	> 100 µM

###

Test system: NCI-H23 lung
ASSAY_SUMMARY: NCI tumour cell line growth inhibition, 48 h
Is TGI at least 4 µM? Then Yes. If not, No.

COMPOUND	TARGET_OR_TEST_SYSTEM	LABEL_CLASS
CCN(Cc1ccc(F)cc1)c1ccc(CO)c(Br)c1	NCI-H23 lung	Yes
CCOC(=O)c1sc2c(c1OC(=O)c1ccc(OC)cc1)c(=O)n(-c1ccccc1)c(=S)n2-c1ccccc1	NCI-H23 lung	Yes
Cn1c2ccccc2c2ncc3[nH]c4ccccc4c3c21	NCI-H23 lung	Yes
COc1cc(/C=C\c2cc(OC)c(OC)c(OC)c2)cc(N/C=C\C(=O)c2cc(OC)c(OC)c(OC)c2)c1OC	NCI-H23 lung	Yes
CC1CCN(C(=O)OCc2nc3nc(Cl)nc(N4CCOCC4)c3[nH]2)CC1	NCI-H23 lung	No
CCc1c(Cl)c(C)cc(O)c1Cl	NCI-H23 lung	Yes
CN(C)CCC(=O)C(=Cc1ccc(O)cc1)C(=O)CCN(C)C	NCI-H23 lung	Yes
O=C(O)CCSC(CC1(c2ccc(Cl)cc2)NC(=O)CCS1)c1ccccc1 (stereo not given)	NCI-H23 lung	Yes
CC1(C)OC[C@@H]([C@H](O)C2C=CC(=O)S2)O1 (stereo not given in full)	NCI-H23 lung	Yes
COc1cccc2nc3c(C(=O)NCCN(C)C)cccc3cc12	NCI-H23 lung	Yes
Cc1nc2ccc(F)cc2c2c1CCN2c1ccc(Cl)cc1	NCI-H23 lung	Yes
NCCc1cc(O)c(O)cc1O	NCI-H23 lung	Yes
CC(C)=CCc1cc(O)cc2c1OC(C=C(C)C)C1=C2C(=O)C2=C(C1=O)S(=O)(=O)CCN2 (stereo not given)	NCI-H23 lung	Yes
CC(=O)N(C)CCc1c[nH]c2ccccc12	NCI-H23 lung	Yes
CC1OC(OC2C(OC(=O)[C@]34CCC(C)(C)C[C@H]3C3=CC[C@@H]5[C@@]6(C)CC[C@H](OC7OC(CO)C(O)C(O)C7OC7OC(CO)C(O)C(O)C7O)C(C)(C)[C@@H]6CC[C@@]5(C)[C@]3(C)CC4)OCC(O)C2O)C(O)C(OC2OCC(O)C(O)C2O)C1OC1OCC(O)C(OC2OCC(O)C(O)C2O)C1O (stereo not given in full)	NCI-H23 lung	Yes
COc1cc(C2CC(c3cccc(Nc4ccncc4)c3)=NN2c2ccc(Cl)cc2)cc(OC)c1OC (stereo not given)	NCI-H23 lung	No
Cc1c2cccc-2c(OCCO)cc2c3ccccc3n(C)c12	NCI-H23 lung	Yes
[N-]=[N+]=NCc1nc(N)c2c3c(sc2n1)CCCC3	NCI-H23 lung	No
O=C1c2ccccc2C(=O)c2c1nc1ccccc1c2-c1cncc(-c2c3c(nc4ccccc24)C(=O)c2ccccc2C3=O)c1	NCI-H23 lung	No
Cc1ccc(Nc2oc(-c3ccccc3)nc2[P+](c2ccccc2)(c2ccccc2)c2ccccc2)cc1	NCI-H23 lung	No

Data origin: PubChem BioAssay (NCI)
